The following molecules are listed with their measured Nucleic acid encapsulation rate values.
Assay Notes: Encapsulation rate of siRNA in nucleic acid lipid particles (Luc2-siRNA)
Assay type: physicochemical
Test Settings: compound/DSPC/cholesterol/DMG-PEG2000 50/10/38.5/1.5
Answer with a number only, understood to be in %.

Worked examples, 3 molecules total:
Asked: Data request, read-out Nucleic acid encapsulation rate, for CCCCC/C=C\C/C=C\CCCCCCCCN(CCCCCCCC/C=C\C/C=C\CCCCC)C(=O)CCN(C)CCN(C)C [Comparative Example 7, reference compound]
Given back: 87

Asked: Please answer likewise for CCCCCCC(CCCC)COC(=O)CCCCC(CCCCCC)OC(=O)OCCN(CCN(CC)CC)C(C)C (stereo not shown)
Given back: 83

Asked: Now this one: "CCCCC/C=C\C/C=C\CCCCCCCCC(CCCCCCCC/C=C\C/C=C\CCCCC)OC(=O)OCCN(CC)CCN1CCOCC1"
Given back: 69

Read the next record carefully.
Asked: State the recorded Nucleic acid encapsulation rate for this entry: "CCCCCCCCCCCCCCCCN(CCCCCCCCCCCCCCCC)C(=O)OCCN(C)CCN(C)C"
Given back: 80
